tested on: GST-Bcl-2; assay: TR-FRET binding assay, Bcl-2; conditions: TR-FRET Ki values
metric.name: Binding selectivity ratio (Bcl-XL Ki/Bcl-2 Ki)
No unit in the answer, only the number.

Exercise: Recorded Binding selectivity ratio (Bcl-XL Ki/Bcl-2 Ki) for CNc1ccc(S(=O)(=O)NC(=O)c2ccc(N3CCN(CC4=C(c5ccc(Cl)cc5)CC(C)(C)CC4)CC3)cc2Oc2cccc3[nH]ccc23)cc1[N+](=O)[O-] [EXAMPLE 246] , please?
Solution: 490.9

Exercise: Recorded Binding selectivity ratio (Bcl-XL Ki/Bcl-2 Ki) for CN(C)CC(=O)N1CCO[C@H](COc2ncc(S(=O)(=O)NC(=O)c3ccc(N4CCN(CC5=C(c6ccc(Cl)cc6)CC(C)(C)CC5)CC4)cc3Oc3cccc4[nH]cnc34)cc2Cl)C1 [EXAMPLE 423] , please?
Solution: 756.62

Exercise: Recorded Binding selectivity ratio (Bcl-XL Ki/Bcl-2 Ki) for CC1(C)CCC(CN2CCN(c3ccc(C(=O)NS(=O)(=O)c4ccc(NCCN5CCNC(=O)C5)c([N+](=O)[O-])c4)c(Oc4cccc5[nH]ccc45)c3)CC2)=C(c2ccc(Cl)cc2)C1 [EXAMPLE 280] , please?
Solution: 1097.2

Exercise: Recorded Binding selectivity ratio (Bcl-XL Ki/Bcl-2 Ki) for CC1(C)CCC(CN2CCN(c3ccc(C(=O)NS(=O)(=O)c4ccc(NC5CCN(CC(F)(F)F)CC5)c([N+](=O)[O-])c4)c(Oc4cccc5[nH]ccc45)c3)CC2)=C(c2ccc(Cl)cc2)C1 [Example 108] , please?
Solution: 25.5

Exercise: Recorded Binding selectivity ratio (Bcl-XL Ki/Bcl-2 Ki) for CN(C)CCCN(C)c1ccc(S(=O)(=O)NC(=O)c2ccc(N3CCN(Cc4ccccc4-c4ccc(Cl)cc4)CC3)cc2Oc2ccccc2)cc1[N+](=O)[O-] [Example 87] , please?
Solution: 533.8

* * *

tested on: GST-Bcl-2; assay: TR-FRET binding assay, Bcl-2; conditions: TR-FRET Ki values
Task for the reader: assign each of the following molecules its reported Binding selectivity ratio (Bcl-XL Ki/Bcl-2 Ki).

Exercise: Recorded Binding selectivity ratio (Bcl-XL Ki/Bcl-2 Ki) for CC1(C)CCC(CN2CCN(c3ccc(C(=O)NS(=O)(=O)c4ccc(NCC5CCOCC5)c(C(F)(F)F)c4)c(Oc4ccc5[nH]ccc5c4)c3)CC2)=C(c2ccc(Cl)cc2)C1 , please?
Solution: >22.2

Exercise: Recorded Binding selectivity ratio (Bcl-XL Ki/Bcl-2 Ki) for O=C(NS(=O)(=O)c1ccc(NCC2CCOCC2)c(S(=O)(=O)C(F)(F)F)c1)c1ccc(N2CCN(Cc3ccccc3-c3ccc(Cl)cc3)CC2)cc1Oc1ccccc1 , please?
Solution: >117.5

Exercise: Recorded Binding selectivity ratio (Bcl-XL Ki/Bcl-2 Ki) for CC1(C)CCC(CN2CCN(c3ccc(C(=O)NS(=O)(=O)c4ccc(NN5CCCCC5)c([N+](=O)[O-])c4)c(Oc4cccc5[nH]ccc45)c3)CC2)=C(c2ccc(Cl)cc2)C1 , please?
Solution: >13.9

Exercise: Recorded Binding selectivity ratio (Bcl-XL Ki/Bcl-2 Ki) for CC1(C)CCC(CN2CCN(c3ccc(C(=O)NS(=O)(=O)c4ccc(OC5CCN(C6CCOCC6)CC5)c([N+](=O)[O-])c4)c(Oc4ccc5[nH]ccc5c4)c3)CC2)=C(c2ccc(Cl)cc2)C1 , please?
Solution: 685.5

Exercise: Recorded Binding selectivity ratio (Bcl-XL Ki/Bcl-2 Ki) for CC1(C)CCC(CN2CCN(c3ccc(C(=O)NS(=O)(=O)c4ccc(NN5CCCCC5)c([N+](=O)[O-])c4)c(Oc4ccc5[nH]ccc5c4)c3)CC2)=C(c2ccc(Cl)cc2)C1 , please?
Solution: >425.2

* * *

system: FL5.12/Bcl-2 cells; assay: FL5.12/Bcl-2 cell viability assay; format: cell-based, murine; details: ratio of canine platelet EC50 to FL5.12/Bcl-2 EC50
Task for the reader: assign each of the following compounds its reported Selectivity Ratio (Platelet EC50/FL5.12/Bcl-2 EC50).

Exercise: Recorded Selectivity Ratio (Platelet EC50/FL5.12/Bcl-2 EC50) for O=C(NS(=O)(=O)c1ccc(NCC2CCOCC2)c([N+](=O)[O-])c1)c1ccc(N2CCN(Cc3c(OCCN4CCOCC4)cccc3-c3ccc(Cl)cc3)CC2)cc1Oc1ccc2[nH]ccc2c1 [Example 132] , please?
Solution: >1196

Exercise: Recorded Selectivity Ratio (Platelet EC50/FL5.12/Bcl-2 EC50) for O=C(NS(=O)(=O)c1ccc(NCCCN2CCCC2)c([N+](=O)[O-])c1)c1ccc(N2CCN(Cc3cc(OCCN4CCOCC4)ccc3-c3ccc(Cl)cc3)CC2)cc1Oc1ccc2[nH]ccc2c1 [Example 136] , please?
Solution: >263

Exercise: Recorded Selectivity Ratio (Platelet EC50/FL5.12/Bcl-2 EC50) for CC1(C)CCC(CN2CCN(c3ccc(C(=O)NS(=O)(=O)c4ccc(NCCCN5CCCC5)c([N+](=O)[O-])c4)c(Oc4cccc5[nH]ccc45)c3)CC2)=C(c2ccc(OC(F)(F)F)cc2)C1 [Example 70] , please?
Solution: >450

Exercise: Recorded Selectivity Ratio (Platelet EC50/FL5.12/Bcl-2 EC50) for CN(C)CCCNc1ccc(S(=O)(=O)NC(=O)c2ccc(N3CCN(CC4=C(c5ccc(Cl)cc5)CC(C)(C)CC4)CC3)cc2Oc2ccc3[nH]ccc3c2)cc1C(F)(F)F [Example 171] , please?
Solution: >181

* * *

Tested on: GST-Bcl-2
Test: TR-FRET binding assay, Bcl-2
Settings: TR-FRET Ki values
Protocol: Tb-anti-GST antibody was purchased from Invitrogen (Catalog No. PV4216). […] The samples were then mixed on a shaker for 1 minute and incubated for an additional 3 hours at room temperature. […] Fluorescence was measured on the Envision (Perkin Elmer) using a 340/35 nm excitation filter and 520/525 (F-Bak peptide) and 495/510 nm (Tb-labeled anti-Histidine antibody) emission filters. […]
metric.name: Binding selectivity ratio (Bcl-XL Ki/Bcl-2 Ki)

Exercise: Recorded Binding selectivity ratio (Bcl-XL Ki/Bcl-2 Ki) for Cn1ncc(-c2ccc(Cl)cc2)c1CN1CCN(c2ccc(C(=O)NS(=O)(=O)c3ccc(NCC4CCOCC4)c([N+](=O)[O-])c3)c(Oc3ccc4[nH]ccc4c3)c2)CC1 , please?
Solution: >94.4

Exercise: Recorded Binding selectivity ratio (Bcl-XL Ki/Bcl-2 Ki) for CC1(C)CCC(CN2CCN(c3ccc(C(=O)NS(=O)(=O)c4ccc(NC5CCN(C6Cc7ccccc7C6)CC5)c([N+](=O)[O-])c4)c(Oc4ccc5[nH]ccc5c4)c3)CC2)=C(c2ccc(Cl)cc2)C1 , please?
Solution: >141.4

Exercise: Recorded Binding selectivity ratio (Bcl-XL Ki/Bcl-2 Ki) for CC1(C)CCC(CN2CCN(c3ccc(C(=O)NS(=O)(=O)c4ccc(NCC56CC7CC(C5)C(O)[C@H](C7)C6)c([N+](=O)[O-])c4)c(Oc4ccc5[nH]ccc5c4)c3)CC2)=C(c2ccc(Cl)cc2)C1 (stereo partly drawn) , please?
Solution: >957.9

* * *

system: GST-Bcl-2; assay: TR-FRET binding assay, Bcl-2; details: TR-FRET Ki values
metric.name: Binding selectivity ratio (Bcl-XL Ki/Bcl-2 Ki)

Exercise: Recorded Binding selectivity ratio (Bcl-XL Ki/Bcl-2 Ki) for CC1(C)CCC(CN2CCN(c3ccc(C(=O)NS(=O)(=O)c4ccc(NCCCN5CCCC5)c([N+](=O)[O-])c4)c(Oc4cccc5[nH]ccc45)c3)CC2)=C(c2cccc(C(F)(F)F)c2)C1 with GST-Bcl-2, please?
Solution: >105.9

Exercise: Recorded Binding selectivity ratio (Bcl-XL Ki/Bcl-2 Ki) for CC1(C)CCC(CN2CCN(c3ccc(C(=O)NS(=O)(=O)c4ccc(CCC5CCOCC5)c([N+](=O)[O-])c4)c(Oc4ccc5[nH]ccc5c4)c3)CC2)=C(c2ccc(Cl)cc2)C1 with GST-Bcl-2, please?
Solution: >1014.4

Exercise: Recorded Binding selectivity ratio (Bcl-XL Ki/Bcl-2 Ki) for COCCNc1ccc(S(=O)(=O)NC(=O)c2ccc(N3CCN(CC4=C(c5ccc(Cl)cc5)CC(C)(C)CC4)CC3)cc2Oc2ccc3[nH]ccc3c2)cc1[N+](=O)[O-] with GST-Bcl-2, please?
Solution: >3642.4

Exercise: Recorded Binding selectivity ratio (Bcl-XL Ki/Bcl-2 Ki) for CC1(C)CCC(CN2CCN(c3ccc(C(=O)NS(=O)(=O)c4ccc(NCC5CCOCC5)c([N+](=O)[O-])c4)c(Oc4cccc5[nH]ccc45)c3)CC2)=C(c2ccc(Cl)cc2)C1 with GST-Bcl-2, please?
Solution: >4136.9

* * *

system: GST-Bcl-2; experiment: TR-FRET binding assay, Bcl-2; conditions: TR-FRET Ki values
Task for the reader: assign each of the following compounds its reported Binding selectivity ratio (Bcl-XL Ki/Bcl-2 Ki).

Exercise: Recorded Binding selectivity ratio (Bcl-XL Ki/Bcl-2 Ki) for O=C(NS(=O)(=O)c1ccc(N2C(=O)C3CCC3C2=O)cc1)c1ccc(N2CCN(Cc3ccccc3-c3ccc(Cl)cc3)CC2)cc1Oc1ccccc1 (stereo not drawn) [Example 28] , please?
Solution: >19.6

Exercise: Recorded Binding selectivity ratio (Bcl-XL Ki/Bcl-2 Ki) for CN1CCC(Nc2ccc(S(=O)(=O)NC(=O)c3ccc(N4CCN(CC5=C(c6ccc(Cl)cc6)CCCCCC5)CC4)cc3Oc3cccc4[nH]ccc34)cc2[N+](=O)[O-])CC1 [Example 146] , please?
Solution: >14.9

Exercise: Recorded Binding selectivity ratio (Bcl-XL Ki/Bcl-2 Ki) for CC1(C)CCC(CN2CCN(c3ccc(C(=O)NS(=O)(=O)c4cnc(NCC5CCOCC5)c(Br)c4)c(Oc4cccc5[nH]ccc45)c3)CC2)=C(c2ccc(Cl)cc2)C1 [EXAMPLE 325] , please?
Solution: >283.1
